FYI, the data here is from patent US9994515B2.

Test system: DU-145
Assay: MTT assay in DU-145 prostate tumor cells
Format: cell-based
Details: Homo sapiens, DU-145, Table 6, 48 h, 10 point dose response
Counter-ions that a name gives are not always drawn.
Reported metric: IC50

{"Compound": "CSc1ccc(/C(=N/OCCCN(C)C)c2cccc3ccccc23)cc1 [Compound 5m, oxalate]", "Experimental target": "DU-145", "IC50": "9.5 µM"}
{"Compound": "CSc1ccc(/C(=N/OCCCN2CCOCC2)c2cccc3ccccc23)cc1 [Compound 7b]", "Experimental target": "DU-145", "IC50": "> 50 µM"}
{"Compound": "CSc1ccc(/C(=N/OCCN2CCCCC2)c2cccc3ccccc23)cc1 [Compound 5a, oxalate]", "Experimental target": "DU-145", "IC50": "10 µM"}
{"Compound": "COc1ccc(/C(=N/OCCN2CCCCC2)c2cccc3ccccc23)cc1 [Compound 6a, oxalate]", "Experimental target": "DU-145", "IC50": "> 50 µM"}

// batch mode: one IC50 value per listed entry
1. COc1ccc(/C(=N/OCCN(C(C)C)C(C)C)c2cccc3ccccc23)cc1 [Compound 6e, oxalate]
2. CSc1ccc(/C(=N/OCCCCN2CCCCC2)c2cccc3ccccc23)cc1 [Compound 8a]
3. COc1ccc(/C(=N/OCCN(C)C)c2cccc3ccccc23)cc1 [Compound 6c, oxalate]

Response:
> 50 µM
7.5 µM
> 50 µM

* * *

Test system: DU-145
Assay: MTT assay in DU-145 prostate tumor cells
Format: cell-based
Details: Homo sapiens, DU-145, Table 6, 48 h, 10 point dose response
Counter-ions that a name gives are not always drawn.
Reported metric: IC50

{"Compound": "COc1ccc(/C(=N/OCCCN(C)C)c2cccc3ccccc23)cc1 [Compound 6i, oxalate]", "Experimental target": "DU-145", "Experimental result": "> 50 µM"}
{"Compound": "CSc1ccc(/C(=N/OCCCCN2CCCC2)c2cccc3ccccc23)cc1", "Experimental target": "DU-145", "Experimental result": "> 50 µM"}
{"Compound": "CSc1ccc(/C(=N/OCCCN2CCC(C)CC2)c2cccc3ccccc23)cc1 [Compound 7c, oxalate]", "Experimental target": "DU-145", "Experimental result": "10 µM"}
{"Compound": "CCN(CC)CCO/N=C(/c1ccc(OC)cc1)c1cccc2ccccc12 [Compound 6d, oxalate]", "Experimental target": "DU-145", "Experimental result": "> 50 µM"}

Quick one: give me IC50 for each item below, same order please.
1. CSc1ccc(/C(=N/OCCN2CCCC2)c2cccc3ccccc23)cc1 [Compound 5b, oxalate]
2. CSc1ccc(/C(=N/OCCN2CCOCC2)c2cccc3ccccc23)cc1

Response:
1: 9.5 µM; 2: > 50 µM
